- tested system: ICE (Homo sapiens, UniProt P29466)
- Construct: The active enzyme exists as a tetramer of two p20 and two p10 subunits
- run description: Inhibition of ICE: enzyme assay with UV-visible substrate (Succinyl-Tyr-Val-Ala-Asp-pNitroanilide)
- setup conditions: UV-visible substrate assay of Example 1; pH 8.1, 37° C., 80 μM substrate
Non-standard residues stand in square brackets, D forms with d. Residues, ends and D or L forms follow the SMILES beside them. *: point of attachment. Nphe = O=C(O)CNCc1ccccc1; Bz = O=C(c1ccccc1)*
With a cut-off of 20 nM, any Ki strictly below it is called T; any Ki meeting it or above is called F.

Study these solved cases before continuing.
# compound, assigned category
measured = [
    ("CC(C)(C)[C@H](NC(=O)c1nccc2ccccc12)C(=O)N(CC(=O)N[C@H](C=O)CC(=O)O)Cc1ccccc1 [Compound 747]", "F"),
    ("CC(C)[C@H](NC(=O)c1nccc2ccccc12)C(=O)N(CC(=O)N[C@H](C=O)CC(=O)O)Cc1ccccc1 [Compound 748]", "T"),
    ("CC(C)[C@H](NC(=O)c1ccccc1)C(=O)N(CC(=O)N[C@H](C=O)CC(=O)O)Cc1ccccc1 [Compound 706] (Bz-Val-[Nphe]-Asp-aldehyde)", "F"),
    ("CC(C)[C@H](NC(=O)c1ccccc1)C(=O)N(CC(=O)N[C@@H](C=O)CCC(=O)O)Cc1ccccc1 [Compound 754] (Bz-Val-[Nphe]-[dE]-aldehyde)", "F"),
    ("CC(C)[C@H](NC(=O)c1ccc(Cl)cc1)C(=O)N(CC(=O)N[C@@H](CC(=O)O)C(=O)c1ncc(-c2c(Cl)cccc2Cl)o1)C1Cc2ccccc2C1 [Compound 733]", "T"),
]

Attention now shifts to the item below.
Quick check: Ki of CC(C)[C@H](NC(=O)c1ccccc1)C(=O)N(CC(=O)N[C@H](C=O)CC(=O)O)Cc1cccc(NS(C)(=O)=O)c1 [Compound 745] under 20 nM? F

----------
- tested system: ICE (Homo sapiens)
- Construct: The active enzyme exists as a tetramer of two p20 and two p10 subunits
- Sequence (P29466 120-297 limits assumed): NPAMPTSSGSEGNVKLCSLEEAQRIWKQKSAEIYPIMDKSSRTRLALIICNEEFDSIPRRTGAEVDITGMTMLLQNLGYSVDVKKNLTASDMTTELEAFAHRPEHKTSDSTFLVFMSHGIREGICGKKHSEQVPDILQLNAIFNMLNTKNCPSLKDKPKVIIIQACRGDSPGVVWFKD
- Sequence (P29466 317-404 limits assumed): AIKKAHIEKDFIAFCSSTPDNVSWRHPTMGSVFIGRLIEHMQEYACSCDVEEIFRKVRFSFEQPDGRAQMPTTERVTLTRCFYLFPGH
- run description: Inhibition of ICE: enzyme assay with UV-visible substrate (Succinyl-Tyr-Val-Ala-Asp-pNitroanilide)
- setup conditions: UV-visible substrate assay of Example 1; pH 8.1, 37° C., 80 μM substrate
pKi: −log10 of the molar value.
Label rule, in plain words: pKi of 7 and up is Fulfilled, under 7 is Not fulfilled.

Does CC(C)[C@H](NC(=O)c1ccccc1)C(=O)N(CC(=O)N[C@@H](CC(=O)O)C(=O)c1nc2cc(F)cc(F)c2o1)C1Cc2ccccc2C1 [Compound 726] have a reported pKi of at least 7? Fulfilled

Entry to check: CC(C)[C@H](NC(=O)c1nccc2ccccc12)C(=O)N(CC(=O)N[C@@H](C=O)CCC(=O)O)Cc1ccccc1 [Compound 755] Not fulfilled

Source of measurements: patent US5843904A
